src = patent US20260234242A1

Kindly state pEC50 for each of the entries shown.
# test.target: T1, human CDH6 on tumor cells (OVCAR3 cells, PA-1 cells) (human, UniProt P55285 54-790)
# T1 sequence: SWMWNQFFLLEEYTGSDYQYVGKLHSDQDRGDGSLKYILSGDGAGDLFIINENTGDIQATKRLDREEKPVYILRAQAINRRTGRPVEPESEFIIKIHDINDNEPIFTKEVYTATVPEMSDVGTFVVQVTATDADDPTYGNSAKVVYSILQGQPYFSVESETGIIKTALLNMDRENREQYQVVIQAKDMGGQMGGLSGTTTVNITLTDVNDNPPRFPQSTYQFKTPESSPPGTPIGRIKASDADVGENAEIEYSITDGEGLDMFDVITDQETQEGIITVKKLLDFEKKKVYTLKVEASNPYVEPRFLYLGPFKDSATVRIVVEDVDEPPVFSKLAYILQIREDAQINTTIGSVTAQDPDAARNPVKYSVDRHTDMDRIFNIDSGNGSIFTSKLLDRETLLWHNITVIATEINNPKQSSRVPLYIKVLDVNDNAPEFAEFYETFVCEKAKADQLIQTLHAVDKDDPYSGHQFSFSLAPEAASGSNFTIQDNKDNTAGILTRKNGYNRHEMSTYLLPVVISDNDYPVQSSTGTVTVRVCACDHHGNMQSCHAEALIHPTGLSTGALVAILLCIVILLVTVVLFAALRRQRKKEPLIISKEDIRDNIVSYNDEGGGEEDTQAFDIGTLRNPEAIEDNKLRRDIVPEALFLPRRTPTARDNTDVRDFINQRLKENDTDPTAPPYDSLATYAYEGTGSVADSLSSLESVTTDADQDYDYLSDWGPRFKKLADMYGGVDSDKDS
# assay: FACS, OVCAR3 cells
Answers are plain numbers, as −log10 of the molar value.

List pEC50 for every entry below, keeping the order given.
1. CHI-CDH6-1 (antibody, human IgG1, kappa, V domains shown, also called CHI-hCDH6-1; CH1-CDH6-1) VH: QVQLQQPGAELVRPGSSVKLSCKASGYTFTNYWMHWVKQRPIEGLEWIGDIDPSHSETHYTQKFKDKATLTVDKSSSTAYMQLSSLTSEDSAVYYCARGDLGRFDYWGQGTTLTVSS VL: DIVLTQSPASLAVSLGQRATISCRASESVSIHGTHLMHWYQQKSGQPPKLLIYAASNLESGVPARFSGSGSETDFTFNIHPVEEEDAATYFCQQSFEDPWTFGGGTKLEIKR
2. DS-H01L02 (antibody, human IgG1, kappa, V domains shown, Positive control, variable regions from WO2018212136A1; also called positive control anti-human CDH6 antibody) VH: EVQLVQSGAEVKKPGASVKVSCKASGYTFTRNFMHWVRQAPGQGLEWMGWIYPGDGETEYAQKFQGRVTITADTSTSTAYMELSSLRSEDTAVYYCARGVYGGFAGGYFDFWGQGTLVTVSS VL: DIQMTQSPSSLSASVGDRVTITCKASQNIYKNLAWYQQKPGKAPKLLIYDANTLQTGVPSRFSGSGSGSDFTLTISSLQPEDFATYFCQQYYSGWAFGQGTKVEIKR
3. CHI-CDH6-7 (antibody, human IgG1, kappa, V domains shown, also called CH1-CDH6-7; chimeric antibody of murine CDH6-7) VH: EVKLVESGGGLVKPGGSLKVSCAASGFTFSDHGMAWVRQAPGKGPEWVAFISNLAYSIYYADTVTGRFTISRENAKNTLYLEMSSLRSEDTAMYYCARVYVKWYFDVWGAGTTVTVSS VL: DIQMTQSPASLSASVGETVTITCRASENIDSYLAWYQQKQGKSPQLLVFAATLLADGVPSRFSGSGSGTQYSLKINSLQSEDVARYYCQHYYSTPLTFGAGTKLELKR

9.89
9.10
8.25
